Test system: K562R cells
Experiment: Cell growth test (CellTiter-Blue), K562R
Assay type: cell-based
Conditions: Homo sapiens, K-562R, normoxia, 72 hours, read-out: IC50 (50% decrease in cell growth)
REPORTED PROPERTY: pIC50
Here pIC50 is given on a logarithmic scale as minus log10 of the concentration in mol/L.

**Q:** Tell me pIC50 reported for OCCCn1cc(-c2ccccc2)c(-c2ccc(O)c(O)c2)c1 [compound (1)]
**A:** 4.90

----------
System: MDA-MB 231 cells
Test: Cell growth test (CellTiter-Blue), MDA-MB 231
Format: cell-based
Details: Homo sapiens; MDA-MB 231, normoxia, 72 hours; read-out: IC50 (50% decrease in cell growth)
REPORTED PROPERTY: pIC50
Keep it numeric: pIC50 is minus log10 of the concentration in mol/L.

**Q:** Note pIC50 for the compound shown: `OCCCn1cc(-c2ccccc2)c(-c2ccc(O)c(O)c2)c1`
**A:** 4.70

----------
Test system: endothelial cells (HUVEC)
Assay: Survival of endothelial cells in proliferative or quiescent phase
Assay type: cell-based, human
Details: Homo sapiens, HUVEC; 48 hours; read-out: IC50 value, vascular endothelial cells
Description: In order to understand the difference in the observed effects of compound (1) according to whether the vasculature is already formed or is growing “de novo”, vascular endothelial cells were cultured at two different cell densities so as to obtain proliferative phase cells or quiescent cells, then treated or not by compound (1), at 10 μM (IC50 value: 8 μM) for 48 hours. […] Compound (1) may thus be used to treat diseases associated with excessive and abnormal angiogenesis, like cancer or ARMD.
REPORTED PROPERTY: IC50
Please give the number followed by its unit.

**Q:** Name the recorded IC50 of the item `OCCCn1cc(-c2ccccc2)c(-c2ccc(O)c(O)c2)c1` in your answer.
**A:** 8 µM

----------
Tested on: K562 cells
Test: Cell growth test (CellTiter-Blue), K562
Format: cell-based
Settings: Homo sapiens; K562, normoxia, 72 hours; read-out: IC50 (50% decrease in cell growth)
REPORTED PROPERTY: IC50 (µM)
Note: unit µM is implicit; provide only the numeric part.

**Q:** Name the recorded IC50 of the compound listed here: `OCCCn1cc(-c2ccccc2)c(-c2ccc(O)c(O)c2)c1`
**A:** 232

----------
Test: EPR competition with BMPO, superoxide anion from xanthine/xanthine oxidase (aqueous phase)
Format: biochemical
Conditions: xanthine oxidase 53 mU/mL + xanthine 250 μM in PBS pH 7.4, BMPO 50 mM, 10 minutes of incubation; read-out: IC50, inhibition of the formation of the BMPO superoxide adduct
REPORTED PROPERTY: IC50 (µM)
Quick note: give the figure in µM, leave out the unit.

**Q:** Return reported IC50. Input compound: `OCCCn1cc(-c2ccccc2)c(-c2ccc(O)c(O)c2)c1`
**A:** 3.2

----------
Experiment: EPR competition with BMPO, superoxide anion from KO2 in DMSO (organic phase)
Details: KO2 5 mM in DMSO, BMPO 25 mM, room temperature; read-out: IC50, inhibition of the formation of the BMPO superoxide adduct
REPORTED PROPERTY: pIC50
Formally, pIC50 is defined as -log10 of the concentration c, with c in mol/L.

**Q:** Consider the compound `OCCCn1cc(-c2ccccc2)c(-c2ccc(O)c(O)c2)c1` . State its measured pIC50.
**A:** 5.60
